Assay: AUC (0 to infinity) in Sprague-Dawley rat at 15 mg/kg, ip measured after 24 hrs by LC-MS/MS analysis
Type: ADME, organism-based
Conditions: in vivo
READOUT_KIND: AUC(0-inf) (ng·h/mL)
Express the result in ng·h/mL but write the number alone.

The value of AUC(0-inf) measured for the compound COc1cc(OC)c(/C=C/S(=O)(=O)Cc2ccc(OC)c(NCC(=O)NO)c2)c(OC)c1 turned out to be 5200

###

Hi there, I'd appreciate the recorded IC50 for every entry that follows.
Molecular target: Histone deacetylase 4 (Homo sapiens, UniProt P56524)
Sequence (P56524 whole entry): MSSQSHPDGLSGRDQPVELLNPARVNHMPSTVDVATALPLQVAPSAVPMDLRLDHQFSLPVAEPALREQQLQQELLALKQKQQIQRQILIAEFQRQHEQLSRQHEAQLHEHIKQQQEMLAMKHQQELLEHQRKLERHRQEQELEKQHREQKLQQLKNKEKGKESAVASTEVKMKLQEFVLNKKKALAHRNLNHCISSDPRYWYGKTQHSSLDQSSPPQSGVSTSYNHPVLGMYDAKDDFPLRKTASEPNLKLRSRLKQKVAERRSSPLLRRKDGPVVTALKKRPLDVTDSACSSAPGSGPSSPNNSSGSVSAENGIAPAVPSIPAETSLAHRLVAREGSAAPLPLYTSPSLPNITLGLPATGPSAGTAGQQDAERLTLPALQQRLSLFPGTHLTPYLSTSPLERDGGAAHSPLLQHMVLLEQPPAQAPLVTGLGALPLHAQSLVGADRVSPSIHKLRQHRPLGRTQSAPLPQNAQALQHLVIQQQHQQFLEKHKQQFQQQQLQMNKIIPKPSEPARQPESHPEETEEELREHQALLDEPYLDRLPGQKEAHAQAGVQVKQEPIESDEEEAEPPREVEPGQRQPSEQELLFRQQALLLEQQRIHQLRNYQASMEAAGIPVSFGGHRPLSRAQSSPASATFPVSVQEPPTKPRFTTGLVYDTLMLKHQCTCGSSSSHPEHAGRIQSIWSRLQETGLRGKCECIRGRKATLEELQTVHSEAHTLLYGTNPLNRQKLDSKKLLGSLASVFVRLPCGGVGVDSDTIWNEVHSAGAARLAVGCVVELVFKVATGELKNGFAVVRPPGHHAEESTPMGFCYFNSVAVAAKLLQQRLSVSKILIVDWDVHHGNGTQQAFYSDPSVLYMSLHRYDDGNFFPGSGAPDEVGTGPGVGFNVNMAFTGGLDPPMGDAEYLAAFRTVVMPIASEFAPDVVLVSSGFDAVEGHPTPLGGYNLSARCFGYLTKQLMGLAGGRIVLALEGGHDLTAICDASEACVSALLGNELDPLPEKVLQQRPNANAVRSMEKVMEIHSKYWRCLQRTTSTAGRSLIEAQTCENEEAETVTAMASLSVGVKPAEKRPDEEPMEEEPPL
// unit must come after the numeric part

The value of IC50 measured for the compound COc1cc(OC)c(/C=C/S(=O)(=O)Cc2ccc(OC)c(NC(=O)CCC(=O)NO)c2)c(OC)c1 turned out to be 84.1 nM

The value of IC50 measured for the compound COc1cc(OC)c(/C=C/S(=O)(=O)Cc2ccc(OC)c(NCC(=O)NO)c2)c(OC)c1 turned out to be 75 nM
